Test system: induction of TAT by dexamethasone in HepG2 cells
Assay: HepG2 tyrosine aminotransferase (TAT) assay
Assay type: cell-based, human
Settings: HepG2 cells, challenge of 100 nM dexamethasone; Ki from IC50 by Cheng and Prusoff equation
pKi: −log10 of the molar value.
ENDPOINT: pKi

Past entries and their recorded results:
CCn1nncc1S(=O)(=O)N1CCC2=Cc3c(cnn3-c3ccc(F)cc3)C[C@]2(C(=O)c2cc(C(F)(F)F)ccn2)C1 [Example 11CL]: 7.00 to 7.70
Cn1cc(S(=O)(=O)N2CCC3=Cc4c(cnn4-c4ccc(F)cc4)C[C@]3(C(=O)c3cscn3)C2)cn1 [Example 11CY]: 7.00 to 7.70
COc1ccnc(C(=O)[C@]23Cc4cnn(-c5ccc(F)cc5)c4C=C2CCN(S(=O)(=O)c2cc(F)cc(F)c2)C3)c1: > 7.70
Cc1ccc(S(=O)(=O)N2CCC3=Cc4c(cnn4-c4ccc(F)cc4)C[C@]3(C(=O)c3ccccn3)C2)cc1Cl [Example 11BG]: > 7.70
Cc1cccc(S(=O)(=O)N2CCC3=Cc4c(cnn4-c4ccc(F)cc4)C[C@]3(C(=O)c3cscn3)C2)c1 [Example 11F]: 7.00 to 7.70

Ask | Value lookup for pKi; key = Cn1ncc(S(=O)(=O)N2CCC3=Cc4c(cnn4-c4ccc(F)cc4)C[C@]3(C(=O)c3ccccn3)C2)n1 (single isomer, unassigned) [Example 11DB]
Reply | > 7.70

Ask | Value lookup for pKi; key = O=C(c1ccccn1)[C@]12Cc3cnn(-c4ccc(F)cc4)c3C=C1CCN(S(=O)(=O)c1ccnc(C(F)(F)F)c1)C2 [Example 11BE]
Reply | 7.00 to 7.70

Ask | Value lookup for pKi; key = N#Cc1ccc(CS(=O)(=O)N2CCC3=Cc4c(cnn4-c4ccc(F)cc4)C[C@]3(C(=O)c3nccs3)C2)cc1
Reply | ≤ 7.00

Ask | Value lookup for pKi; key = O=C(c1ccccn1)[C@]12Cc3cnn(-c4ccc(F)cc4)c3C=C1CCN(S(=O)(=O)c1ccccc1)C2
Reply | > 7.70

Ask | Value lookup for pKi; key = O=C(c1ccccn1)[C@]12Cc3cnn(-c4ccc(F)cc4)c3C=C1CCN(S(=O)(=O)c1cccc(OC(F)F)c1)C2 [Example 11L]
Reply | > 7.70

Ask | Value lookup for pKi; key = Cc1ccnc(C(=O)[C@]23Cc4cnn(-c5ccc(F)cc5)c4C=C2CCN(S(=O)(=O)c2cccc(C(F)(F)F)n2)C3)c1 [Example 11AE]
Reply | > 7.70

Ask | Value lookup for pKi; key = O=C(c1cc(C(F)(F)F)ccn1)[C@]12Cc3cnn(-c4ccc(F)cc4)c3C=C1CCN(S(=O)(=O)c1cn[nH]c1)C2 [Example 11BO]
Reply | > 7.70

Ask | Value lookup for pKi; key = CCn1nccc1S(=O)(=O)N1CCC2=Cc3c(cnn3-c3ccc(F)cc3)C[C@]2(C(=O)c2cc(C(F)(F)F)ccn2)C1
Reply | > 7.70

---

Entries annotated with measured Ki
Test system: induction of TAT by dexamethasone in HepG2 cells
Test: HepG2 tyrosine aminotransferase (TAT) assay
Format: cell-based, human
Conditions: HepG2 cells, challenge of 100 nM dexamethasone; Ki from IC50 by Cheng and Prusoff equation

Cc1csc(C(=O)[C@]23Cc4cnn(-c5ccc(F)cc5)c4C=C2CCN(S(=O)(=O)c2cccc(C(F)(F)F)c2)C3)n1 [Example 12M]: 20 to 100 nM
O=C(c1ccccn1)[C@]12Cc3cnn(-c4ccc(F)cc4)c3C=C1CCN(S(=O)(=O)C1CCOCC1)C2: ≥ 100 nM
Cc1ccnc(C(=O)[C@]23Cc4cnn(-c5ccc(F)cc5)c4C=C2CCN(S(=O)(=O)c2c(C)noc2C)C3)c1 [Example 11AX]: 20 to 100 nM
CCn1cc(S(=O)(=O)N2CCC3=Cc4c(cnn4-c4ccc(F)cc4)C[C@]3(C(=O)c3ccccn3)C2)cn1 [Example 11AY]: 20 to 100 nM
Cc1ccnc(C(=O)[C@]23Cc4cnn(-c5ccc(F)cc5)c4C=C2CCN(S(=O)(=O)c2ccc(F)c(C)c2)C3)c1 [Example 11AL]: < 20 nM

Ask | Value lookup for Ki; key = CC(C)n1nncc1S(=O)(=O)N1CCC2=Cc3c(cnn3-c3ccc(F)cc3)C[C@]2(C(=O)c2ccccn2)C1 [Example 11CU]
Reply | 20 to 100 nM

Ask | Value lookup for Ki; key = CCCn1ncc(S(=O)(=O)N2CCC3=Cc4c(cnn4-c4ccc(F)cc4)C[C@]3(C(=O)c3ccccn3)C2)n1 [Example 11CN]
Reply | < 20 nM
